Field: Kd. Provide a value for each of the binders that follow.
# tested.on: T1, RHEB1, mGppNHp-bound (human, UniProt Q15382 1-184)
# T1 construct: human RHEB1; Loaded with mGppNHp; the discussion speaks of the RHEB G domain
# method: fluorescence polarisation; increasing concentrations of the RA/RB domain as MBP fusion protein (0.002-300 µM; or MBP alone) titrated to mGppNHp-bound RAS protein (1 µM); 30 mM Tris-HCl pH 7.4, 100 mM NaCl, 5 mM MgCl2, 3 mM DTT; Kd from a quadratic ligand-binding equation
# condition.notes: both partners purified
Answers are plain numbers, in µM.

binder: RASSF5 RA domain, MBP fusion protein (domain or fragment, UniProt Q5EBH1 200-358, looked up, RASSF5 RA domain, aa 200-358 of Q5EBH1 as the methods print it; also called NORE1; RAPL) PPTIQEIKQKIDSYNSREKHCLGMKLSEDGTYTGFIKVHLKLRRPVTVPAGIRPQSIYDAIKEVNPAATTDKRTSFYLPLDAIKQLHISSTTTVSEVIQGLLKKFMVVDNPQKFALFKRIHKDGQVLFQKLSIADYPLYLRLLAGPDTDVLSFVLKENE
reading.unit: µM
quantitative.result: 46

Proceeding to the next binder to report its Kd.
Query RASSF7 RA domain, MBP fusion protein (domain or fragment, human, UniProt Q02833 6-89, looked up, RASSF7 RA domain, aa 6-89 of Q02833) AAMELKVWVDGIQRVVCGVSEQTTCQEVVIALAQAIGQTGRFVLVQRLREKERQLLPQECPVGAQATCGQFASDVQFVLRRTGP yields Kd of 76
